molecular target: HLA-A*02:01; experiment: IEDB peptide-MHC binding, purified MHC/direct/fluorescence; filed as Kd, often an IC50 or EC50 that approximates it; bounds were set here for any values at or beyond the usual limits of such assays; conditions: source organism: Mammarenavirus amapariense
value type: pKd
Units for pKd: none; it is -log10 of a concentration expressed in mol/L.

Task: Returns the measured pKd for the input sequence. Input: "ILWDYFSLV"
Result: 9.70

* * *

biological target: HLA-A*29:02; assay: IEDB peptide-MHC binding, purified MHC/competitive/fluorescence; filed as Kd, often an IC50 or EC50 that approximates it; bounds were set here for any values at or beyond the usual limits of such assays; details: source organism: Cryptosporidium parvum Iowa II
value type: Kd (nM)
Unit nM implied. Number only.

Task: Returns the measured Kd for the input sequence. Input: "FTWQHNYYL"
Result: 50.9

These entries and their values trace back to the Immune Epitope Database (IEDB).
